molecular target: p38MAP kinase (Homo sapiens)
Sequence (Q16539 whole entry): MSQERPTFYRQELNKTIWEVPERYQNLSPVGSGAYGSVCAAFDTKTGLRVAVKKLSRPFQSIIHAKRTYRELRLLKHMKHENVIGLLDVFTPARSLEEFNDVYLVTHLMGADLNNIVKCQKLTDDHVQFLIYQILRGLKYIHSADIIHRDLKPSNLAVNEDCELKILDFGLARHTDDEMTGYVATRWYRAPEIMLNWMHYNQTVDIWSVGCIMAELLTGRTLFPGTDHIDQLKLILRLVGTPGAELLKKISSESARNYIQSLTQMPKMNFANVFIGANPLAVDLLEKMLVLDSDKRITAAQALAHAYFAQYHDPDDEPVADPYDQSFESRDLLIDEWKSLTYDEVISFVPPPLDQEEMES
REPORTED ENDPOINT: IC50

# input IC50 for `CC(=O)Nc1cc(-c2cn(C3=NNC(=O)CC3)nc2-c2ccc(F)cc2)ccn1` ?
# output 2.1 nM

# input Again, but for `Nc1cc(-c2cn(-c3ccc4nncn4n3)nc2-c2ccc(F)cc2)ccn1`
# output 7.4 nM

# input Again, but for `Fc1ccc(-c2nn(-c3ccc4nncn4n3)cc2-c2ccnc(NCC(F)(F)F)c2)cc1`
# output 2 nM

# input Again, but for `O=C(Nc1cc(-c2cn(-c3ccc4nncn4n3)nc2-c2ccc(F)cc2)ccn1)C1CCCC1`
# output 4.9 nM

# input Again, but for `Nc1cc(-c2cn(-c3ccc4nncn4n3)nc2-c2ccccc2F)ccn1`
# output 9.5 nM

# input Again, but for `O=c1ccc(-n2cc(-c3ccncc3)c(-c3ccc(F)cc3)n2)n[nH]1`
# output 8.9 nM

* * *

system: cytokine (IL-1β and TNF-α) induced IL-6 production; assay: Inhibition of IL-6 production in rat (in vivo); details: LEW rats, 3 mg/Kg oral, 1 hour before IL-1β/TNF-α i.v., serum IL-6 two hours later
REPORTED ENDPOINT: Rat cytokine induced IL-6 production inhibiting ratio (%) @3 mg/Kg
Expressed in %, but write only the number.

# input Rat cytokine induced IL-6 production inhibiting ratio (%) @3 mg/Kg for `Nc1cc(-c2cn(-c3ccc4nncn4n3)nc2-c2ccccc2F)ccn1` ?
# output 73

# input Again, but for `Fc1ccc(-c2nn(-c3ccc4nncn4n3)cc2-c2ccnc(NCC(F)(F)F)c2)cc1`
# output 97

# input Again, but for `Nc1cc(-c2cn(-c3ccc(=O)[nH]n3)nc2-c2ccccc2)ccn1`
# output 78

# input Again, but for `Fc1ccc(-c2nn(-c3ccc4nncn4n3)cc2-c2ccncc2)cc1`
# output 92

# input Again, but for `CNc1cc(-c2cn(-c3ccc(=O)[nH]n3)nc2-c2ccc(F)cc2)ccn1`
# output 81

# input Again, but for `Nc1cc(-c2cn(-c3ccc(=O)[nH]n3)nc2-c2ccccc2F)ccn1`
# output 77

# input Again, but for `O=C1CCC(n2cc(-c3ccnc(NCC(F)(F)F)c3)c(-c3ccc(F)cc3)n2)=NN1`
# output 85

# input Again, but for `Nc1cc(-c2cn(C3=NNC(=O)CC3)nc2-c2ccccc2)ccn1`
# output 84
